Just for reference, patent US20240174622A1 is where these values come from.

Kindly state Muscle for each of the entries shown.
- Tested on: LNCaP tumor-transplanted mouse
- test: Internal radioactivity distribution using LNCaP tumor-transplanted mouse
- Type: in vivo
- measurement setup: 96 h after administration
The figure you give is taken to be in % ID/g; do not add the unit.

Identify measured Muscle obtained with LNCaP tumor-transplanted mouse for O=C([O-])CN(CCN(CCc1ccc(NC(=O)[C@H](CCCCNC(=O)CCC(=O)NCCCC[C@H](NC(=O)N[C@@H](CCC(=O)O)C(=O)O)C(=O)O)NC(=O)CCCc2ccc(I)cc2)cc1)CCN(CC(=O)[O-])Cc1cccc(C(=O)[O-])n1)Cc1cccc(C(=O)[O-])n1.[111In+3] [[^111In]In-Neunpa-2] .
0.03

Recall the reported Muscle of O=C([O-])CN1CCN(C(CCC(=O)NCCCC[C@H](NC(=O)N[C@@H](CCC(=O)O)C(=O)O)C(=O)O)C(=O)[O-])CCN(CC(=O)[O-])CCN(C(CCC(=O)N[C@@H](CCCCNC(=O)CCCc2ccc(I)cc2)C(=O)O)C(=O)[O-])CC1.[111In+3] (some centres unmarked) [[^111In]In-PSMA-DA1] when tested on LNCaP tumor-transplanted mouse.
0.23

----------
- Test system: LNCaP tumor-transplanted mouse
- test: Internal radioactivity distribution using LNCaP tumor-transplanted mouse
- Type: in vivo
- measurement setup: 1 h after administration
test readout: Liver (% ID/g)
A number alone suffices; assume % ID/g.

Write Liver of O=C([O-])CN(CCN(CCc1ccc(NC(=O)CCCCCNC(=O)CCC(=O)NCCCC[C@H](NC(=O)N[C@@H](CCC(=O)O)C(=O)O)C(=O)O)cc1)CCN(CC(=O)[O-])Cc1cccc(C(=O)[O-])n1)Cc1cccc(C(=O)[O-])n1.[111In+3] [[^111In]In-Neunpa-1, reference compound] ; system used: LNCaP tumor-transplanted mouse
0.60

----------
- Test system: LNCaP tumor-transplanted mouse
- test: Internal radioactivity distribution using LNCaP tumor-transplanted mouse
- Format: in vivo
- measurement setup: 96 h after administration
test readout: Heart (% ID/g)
Note: unit % ID/g is implicit; provide only the numeric part.

Give Heart for the following molecule: O=C([O-])CN(Cc1cccc(C(=O)[O-])n1)C[C@H](Cc1ccc(NC(=O)[C@H](CCCCNC(=O)CCC(=O)NCCCC[C@H](NC(=O)N[C@@H](CCC(=O)O)C(=O)O)C(=O)O)NC(=O)CCCc2ccc(I)cc2)cc1)N(CC(=O)[O-])Cc1cccc(C(=O)[O-])n1.[111In+3] [[^111In]In-Octapa-2]
0.07

Look up Heart of O=C([O-])CN(CCN(CCc1ccc(NC(=O)[C@H](CCCCNC(=O)CCC(=O)NCCCC[C@H](NC(=O)N[C@@H](CCC(=O)O)C(=O)O)C(=O)O)NC(=O)CCCc2ccc(I)cc2)cc1)CCN(CC(=O)[O-])Cc1cccc(C(=O)[O-])n1)Cc1cccc(C(=O)[O-])n1.[111In+3] [[^111In]In-Neunpa-2] and report it.
0.14

Consider the molecule O=C([O-])CN(CCN(CCc1ccc(NC(=O)CCCCCNC(=O)CCC(=O)NCCCC[C@H](NC(=O)N[C@@H](CCC(=O)O)C(=O)O)C(=O)O)cc1)CCN(CC(=O)[O-])Cc1cccc(C(=O)[O-])n1)Cc1cccc(C(=O)[O-])n1.[111In+3] [[^111In]In-Neunpa-1, reference compound] and give its recorded Heart.
0.28

Hello, please tell me recorded Heart for this one: O=C(O)CC[C@H](NC(=O)N[C@@H](CCCCNC(=O)[C@H](Cc1ccc2ccccc2c1)NC(=O)[C@H]1CC[C@H](CNC(=O)CCC(C(=O)O)N2CCN(CC(=O)O)CCN(C(CCC(=O)N[C@@H](CCCCNC(=O)CCCc3ccc(I)cc3)C(=O)O)C(=O)O)CCN(CC(=O)O)CC2)CC1)C(=O)O)C(=O)O (some centres unmarked) [[^111In]In-PSMA-NAT-DA1, metal not drawn]
2.10

Retrieve Heart measured for O=C([O-])CN(Cc1cccc(C(=O)[O-])n1)C[C@H](Cc1ccc(NC(=O)CCCCCNC(=O)CCC(=O)NCCCC[C@H](NC(=O)N[C@@H](CCC(=O)O)C(=O)O)C(=O)O)cc1)N(CC(=O)[O-])Cc1cccc(C(=O)[O-])n1.[111In+3] [[^111In]In-Octapa-1, reference compound] and print it.
0.03

Specify reported Heart for the molecule shown: O=C([O-])CN1CCN(C(CCC(=O)NCCCC[C@H](NC(=O)N[C@@H](CCC(=O)O)C(=O)O)C(=O)O)C(=O)[O-])CCN(CC(=O)[O-])CCN(C(CCC(=O)Nc2ccccc2)C(=O)[O-])CC1.[111In+3] (some centres unmarked) [[^111In]In-PSMA-DB, reference compound]
0.40

Fill in Heart for record O=C([O-])CN(Cc1cccc(C(=O)[O-])n1)C[C@H](Cc1ccc(NC(=O)[C@H](CCCCNC(=O)CCC(=O)NCCCC[C@H](NC(=O)N[C@@H](CCC(=O)O)C(=O)O)C(=O)O)NC(=O)COCCOCCOCC(=O)N[C@@H](CCCCNC(=O)CCCc2ccc(I)cc2)C(=O)O)cc1)N(CC(=O)[O-])Cc1cccc(C(=O)[O-])n1.[111In+3] [[^111In]In-Octapa-3]
0.43

Using known records, supply Heart for O=C([O-])CN1CCN(C(CCC(=O)NCCCC[C@H](NC(=O)N[C@@H](CCC(=O)O)C(=O)O)C(=O)O)C(=O)[O-])CCN(CC(=O)[O-])CCN(C(CCC(=O)N[C@@H](CCCCNC(=O)CCCc2ccc(I)cc2)C(=O)O)C(=O)[O-])CC1.[111In+3] (some centres unmarked) [[^111In]In-PSMA-DA1]
0.75
